B1: Double-stranded RNA-binding protein Staufen homolog 1, residues 183 to 249; numbered along this chain, O95793 (parent)
chain: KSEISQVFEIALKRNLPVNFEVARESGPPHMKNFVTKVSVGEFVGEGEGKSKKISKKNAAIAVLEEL

- Variants of: B1
- assay_comment: abundance fitness (aPCA) (normalised: wild type 0, dead -1); higher = more abundant; growth selection in yeast, the domain comes from the species named
- run_parameters: Homo sapiens
readout_kind: abundance fitness

[[record]]
mut = "K32A"
experimental_result = -0.037

[[record]]
mut = "P28H"
experimental_result = -0.123

[[record]]
mut = "G47C"
experimental_result = -0.976

[[record]]
mut = "E48I"
experimental_result = 0.128

[[record]]
mut = "N33G"
experimental_result = -0.221

[[record]]
mut = "I54M"
experimental_result = -0.051

[[record]]
mut = "I4Q"
experimental_result = -0.661

[[record]]
mut = "S51P"
experimental_result = -0.449

[[record]]
mut = "K1V"
experimental_result = -0.335

[[record]]
mut = "I61E"
experimental_result = -0.245

[[record]]
mut = "A60I"
experimental_result = -0.452

[[record]]
mut = "N58S"
experimental_result = -0.341

[[record]]
mut = "A11D"
experimental_result = -0.679

[[record]]
mut = "K1H"
experimental_result = -0.738

[[record]]
mut = "E42K"
experimental_result = -0.046

[[record]]
mut = "G49V"
experimental_result = -0.694

[[record]]
mut = "K50G"
experimental_result = -0.184

[[record]]
mut = "H30E"
experimental_result = -0.037

[[record]]
mut = "I54K"
experimental_result = -0.081

[[record]]
mut = "S39F"
experimental_result = -0.099

[[record]]
mut = "F8C"
experimental_result = -0.258

[[record]]
mut = "S55Y"
experimental_result = -1.07

